test system: 786-0 renal; test: NCI-60 one-dose screen, 48 h; conditions: 10 µM unless noted
This is part of a sample that, as a whole, favours compounds with a hit. Of some 83,000 tested, about 20% had one in any assay. Calls of active or inactive are those of the source. Rule for the calls: active = growth percent below 10; inactive = the rest.
Output constraint: value belongs to Y (active), N (inactive)

Past entries and their recorded results:
{"Molecule": "Cc1ccc(-c2onc3c(=O)[nH]nc(-c4ccccc4)c23)cc1", "Group Label": "N"}
{"Molecule": "CC(C)n1c(/C=C/[C@@H](O)C[C@@H](O)CC(=O)O)c(-c2ccc(F)cc2)c2ccccc21", "Group Label": "N"}
{"Molecule": "N#Cc1c(-c2ccc(Cl)cc2)nc(N=Nc2c(O)[nH]c3ccc(Cl)cc23)nc1N1CCOCC1", "Group Label": "N"}
{"Molecule": "CC1=CC(C)(C)Nc2ccc(Cc3ccc4c(c3)C(C)=CC(C)(C)N4)cc21", "Group Label": "N"}
{"Molecule": "COc1cc(-c2nn(C)nc2-c2cc3ccccc3s2)cc(OC)c1OC", "Group Label": "N"}

Would you mind telling me which call this test gave COC(=O)c1ccc2oc(NC(=O)c3ccc(Nc4ccc([N+](=O)[O-])cc4C)c([N+](=O)[O-])c3)nc2c1 ?
N

Would you mind telling me which call this test gave CC(=O)O[C@H]1C(=O)[C@@]2(C)[C@H]([C@H](OC(=O)c3ccccc3)[C@]3(O)C[C@H](OC(=O)[C@H](OC(=O)CCC(=O)OC4CCC(S/N=C(N)/N=C(\N)N(C)C)CC4)[C@@H](NC(=O)c4ccccc4)c4ccccc4)C(C)=C1C3(C)C)[C@]1(OC(C)=O)CO[C@@H]1C[C@@H]2O (stereo not given in full) ?
N

Would you mind telling me which call this test gave COc1cccc2c1C(=O)c1c(O)c3c(c(O)c1C2=O)C[C@](O)(C(=O)CO)C[C@H]3O[C@@H]1C[C@@H](NC(=O)CCCCCN(C)C2(c3ccc(F)cc3)CC3CCC2C3)[C@H](O)[C@@H](C)O1 (stereo not given in full) ?
Y

Would you mind telling me which call this test gave O=C1NC(=O)C(c2ccc(Cl)cc2Cl)N1 (stereo not given) ?
N

Would you mind telling me which call this test gave COc1ccc(S(=O)(=O)N2CCCCC2)cc1NC(=O)c1[nH]c(C)c2c1CCCCC2=O ?
N

Would you mind telling me which call this test gave COc1ccc(-c2cc(C(=O)N=Nc3c(O)[nH]c4ccc(Br)cc34)no2)cc1 ?
N

Would you mind telling me which call this test gave c1csc(C2=NN3C(C2)c2ccccc2OC3c2ccncc2)c1 (stereo not given) ?
N

Would you mind telling me which call this test gave Cc1cc(N2CCN(c3ccnc4cc(Cl)ccc34)CC2)nc(N2CCOCC2)n1 ?
N

Would you mind telling me which call this test gave O=S(=O)(Nc1ccc(Cl)c(F)c1)c1ccc(-c2cnc(C3CC3)o2)cc1 ?
N

Would you mind telling me which call this test gave Fc1ccc2[nH]cc(SSc3c[nH]c4ccc(F)cc34)c2c1 ?
N

Would you mind telling me which call this test gave C=C1C(=O)O[C@H]2[C@H]1CC/C(C=Nc1ccc(C(F)(F)F)cc1N)=C\CC[C@@]1(C)O[C@@H]21 ?
N
